molecular target: Pro-neuregulin-1, membrane-bound isoform (Homo sapiens); assay: small molecules binding neuregulin-1 protein – biochemical, small-molecule microarray, fluorescence 635/667, psychiatric disease protein project, primary screen (AID 1075); settings: NRG1 binding, 635 nm fluorescence, higher = more signal;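 also: score combines 667 nm spot fluorescence with signal to noise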
Heads up, the class ranges for composite z-score are class 0 = under -0.08, class 1 = from -0.08 up to 0.8, class 2 = 0.8 and over

{"Molecule": "O=C1N(CCS(=O)(=O)c2ccccc2)c2ccccc2[C@H]2OC(c3ccc(OCCCO)cc3)=N[C@@]12Cc1ccccc1", "Target Under Test": "Pro-neuregulin-1, membrane-bound isoform (Homo sapiens)", "Qualitative Label": "class 0"}
{"Molecule": "CC#CCO[Si](C#Cc1ccccc1)(C(C)C)C(C)C", "Target Under Test": "Pro-neuregulin-1, membrane-bound isoform (Homo sapiens)", "Qualitative Label": "class 0"}
{"Molecule": "CCCC[C@@H](O)C1=C(COC)C[C@H]2C(=O)N(Cc3ccccc3)C(=O)[C@H]2[C@H]1CO", "Target Under Test": "Pro-neuregulin-1, membrane-bound isoform (Homo sapiens)", "Qualitative Label": "class 1"}

Any idea which band `O=C1O[C@@H](c2ccccc2)[C@@H](c2ccccc2)N2[C@@H](c3ccc(O)cc3)[C@]3(C(=O)Nc4ccc(C#CCCO)cc43)[C@@H](C(=O)N3CCN(c4ncccn4)CC3)[C@H]12` is in? class 1

Hey, which category is CC1CC/C=C\[C@H]2OC34C=CCN(Cc5ccccc5)C(=O)[C@H]3N(C(CO)C(C)C)C(=O)[C@@H]4C2C(=O)O1 (stereo partly specified) in, do you know? class 1

Determine which band this molecule sits in: `CN(C)CCCCCCNC(=O)[C@@H]1C[C@@H]2C(=O)N3CCC[C@H]3C(=O)N2[C@@H]1c1cccc(OCCO)c1` class 1

Sort `O=C(NCCN1CCOCC1)[C@@H]1c2ccccc2C(=O)N(C2Cc3ccccc3C2)[C@H]1c1ccc(CO)cc1` into one of the categories. class 2

Where would `COc1ccc([Si](C)(C)[C@@H]2[C@@H](CCO)O[C@]3(C(=O)N(Cc4ccccc4)c4ccc(N5CCOC5=O)cc43)[C@H]2C)cc1` land among the classes by reported composite z-score? class 1

# bin lookup: classify `N[C@@H](Cc1ccccc1)C(=O)NCc1cn(Cc2ccccc2)nn1` by its composite z-score class 0

Category of `C=CCNC(=O)[C@@H]1[C@H]2C(=O)O[C@H](c3ccccc3)[C@H](c3ccccc3)N2[C@H](c2ccccc2OCCO)[C@@]12C(=O)Nc1ccc(C#CCC(C(=O)OC)C(=O)OC)cc12` , please. class 2

Which band does `CO[C@H]1O[C@H](CO)[C@@H](OC(=O)Nc2ccccc2)[C@H](OC(=O)c2cc3ccccc3[nH]2)[C@H]1OC(=O)c1cc2ccccc2[nH]1` fall in? class 2
